Please provide measured MIC of antibiotic + Compound 2 in PAO1 for the entries that follow.
- System: WT P. aeruginosa PAO1
- ASSAY_NOTES: Checkerboard combination study / MIC
- Type: cell-based, Pseudomonas aeruginosa
- TEST_SETTINGS: + compound 2 ≤8.7 μM; PAO1
Give bare numbers, in µg/mL.

Known MIC of antibiotic + Compound 2 in PAO1 results, listed for orientation:
Please supply the value of reported MIC of antibiotic + Compound 2 in PAO1 for the item C[C@H]1[C@H](NC(=O)/C(=N\OC(C)(C)C(=O)O)c2csc(N)n2)C(=O)N1S(=O)(=O)O [Aztreonam] 0.25

Dear colleague, please send me the reported MIC of antibiotic + Compound 2 in PAO1 for C[C@@H](O)[C@H]1C(=O)N2C(C(=O)O)=C(S[C@@H]3CN[C@H](C(=O)N(C)C)C3)[C@H](C)[C@H]12 [Meropenem] when you can. 0.25

Please give measured MIC of antibiotic + Compound 2 in PAO1 of the following entry: CCN1CCN(C(=O)N[C@@H](C(=O)N[C@@H]2C(=O)N3[C@@H]2SC(C)(C)[C@@H]3C(=O)O)c2ccccc2)C(=O)C1=O [Piperacillin] 2

Specify measured MIC of antibiotic + Compound 2 in PAO1 for C[C@@H](O)[C@H]1C(=O)N2C(C(=O)O)=C(S[C@@H]3CN[C@H](CNS(N)(=O)=O)C3)[C@H](C)[C@H]12 [Doripenem] . 0.5

Alright, here's another molecule for you.
Identify MIC of antibiotic + Compound 2 in PAO1 associated with the molecule CC(C)(O/N=C(\C(=O)N[C@@H]1C(=O)N2C(C(=O)[O-])=C(C[n+]3ccccc3)CS[C@H]12)c1csc(N)n1)C(=O)O [Ceftazidime] 0.5

All values here come from patent US20210290648A1.
